For each record, write down the corresponding cytotoxicity at 10 µM.
# PROTOCOL: Toxicity liver stage against HepG2, at 10uM
# Format: cell-based
# Parameters: test concentration 10 uM, cell line HepG2-A16-CD81EGFP
# STUDY_CONDITIONS: human, HepG2-A16-CD81EGFP cells; read-out: INHIBITION
Entry format: amount then unit.

*Q* Value lookup for cytotoxicity at 10 µM; key = Cc1nc(C)c(C(=O)N2CCc3c(C)cccc32)o1
*A* -2.28%

*Q* Again, but for Oc1cccc(CN2C[C@@H]3CC[C@H]2CN(Cc2ccc(F)cc2)C3)c1
*A* -135%

*Q* Repeat for the following compound: Cn1cc(-c2nc(CN3CCn4c(nnc4C4CC4)C3)cs2)cn1
*A* -1.07%

*Q* Item: CC(=O)N1CCCC1CCc1ccnc(-c2cncnc2)c1 (centres undefined)
*A* 1.24%

*Q* Cc1cc(C)n(NC(=O)c2ccccc2F)c(=O)c1 ?
*A* -13.2%

*Q* Here is the next compound: COc1c(C2CCCN2Cc2nc(-c3ccco3)no2)c(C)nn1C (centres undefined)
*A* -10.2%

*Q* Item: Cc1nn(C)cc1-c1ccnc(N(C)Cc2ccc(F)cc2)n1
*A* -3.85%

*Q* Next record, please: Cc1ccc(Cl)cc1N1CCN(CC(=O)NCc2ccco2)CC1
*A* 1.67%

*Q* Would you mind doing O=C(CCCNC(=O)c1cnccn1)Nc1ncc[nH]1 as well?
*A* -41.9%

*Q* Likewise for CC(C)CN1CCC2(CCCNC2)C1=O (centres undefined) ?
*A* -0.184%

*Q* Another compound to look at: O=S(=O)(NCc1ccccc1)Nc1ccc(-n2ccnc2)cc1
*A* 7.03%

*Q* Also, Cc1cnn(CC(C)NCc2ccc(OCC(N)=O)cc2)c1 (centres undefined) please.
*A* -11.7%

*Q* Try this compound next: Cc1ccc(C2CSCCN2C(=O)C2=CCCC2)o1 (centres undefined)
*A* -6.12%

*Q* Lookup CC(=O)N1CCC(N2CCN(Cc3ccc(C)o3)C(CCO)C2)CC1 (centres undefined)
*A* -3.57%

*Q* Now the compound Cc1ccc2cc(CNCCCN3CCOCC3)c(=O)[nH]c2c1C
*A* -10.1%

*Q* Another: O=C(c1cccnc1)N1C[C@H]2CC[C@@H](C1)N(Cc1cccc(Cl)c1F)C2
*A* -9.24%

*Q* Please answer likewise for CS(=O)(=O)N1C[C@H]2N(c3ncccn3)CCC[C@@]2(C(=O)NCC2CC2)C1
*A* -110%

*Q* Now the compound COc1cccc(OCc2cc(C(=O)N3CC(O)C3)n[nH]2)c1
*A* 2.81%

*Q* # iterate: O=C(Nc1ccc2occc2c1)N1CCCC(O)(CO)CC1 (centres undefined)
*A* -0.735%

*Q* // query: Cc1cccc(C(=O)N2C[C@@H]3CC[C@H](Oc4cccc(F)c4)[C@@H]3C2)n1
*A* -14.7%

*Q* Similarly, COCCNc1ccccc1CNC(=O)NCc1cnc(C)s1 ?
*A* 10.6%

*Q* Please do the same for CO[C@H]1CN(C(=O)c2ccc(-c3cc[nH]n3)cc2)CC[C@H]1N as well.
*A* 5.29%

*Q* # repeat for Cc1nc(CN2CCCC2c2c(C)nn(C)c2Cl)no1 (centres undefined)
*A* 1.85%

*Q* Another: CN(C)c1ncc(-c2cc(C(=O)NCCC#N)n(CC3CC3)c2)cn1
*A* 1.29%

Data provenance: ChEMBL document CHEMBL4513216
